The measured values listed here are drawn from patent US5747336A.

- target-under-test: human m2 receptor (Hm2) (Homo sapiens)
- Sequence (P08172 whole entry): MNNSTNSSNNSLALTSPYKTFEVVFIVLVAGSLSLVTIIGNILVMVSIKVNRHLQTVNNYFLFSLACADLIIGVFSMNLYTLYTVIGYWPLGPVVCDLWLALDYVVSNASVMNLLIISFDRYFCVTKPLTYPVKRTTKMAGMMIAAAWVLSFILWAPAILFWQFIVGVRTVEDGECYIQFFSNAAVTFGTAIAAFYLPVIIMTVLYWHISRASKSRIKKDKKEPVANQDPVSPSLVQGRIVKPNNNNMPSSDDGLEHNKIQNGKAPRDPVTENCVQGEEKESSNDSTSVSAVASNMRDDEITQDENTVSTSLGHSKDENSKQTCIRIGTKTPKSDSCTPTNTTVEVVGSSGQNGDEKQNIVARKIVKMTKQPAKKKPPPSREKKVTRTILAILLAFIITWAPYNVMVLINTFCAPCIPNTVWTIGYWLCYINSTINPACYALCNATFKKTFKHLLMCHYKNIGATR
endpoint: Ki
Don't forget the unit after the number, please.

Provide Ki value for the following compound: CCN(CC)CC1CCCCN1CC(=O)N1c2ccccc2C(=O)Nc2cccnc21 (stereo not shown) [AF-DX 116]
0.26 µM

###

- target-under-test: human m5 receptor (Hm5) (Homo sapiens)
- Sequence (P08912 whole entry): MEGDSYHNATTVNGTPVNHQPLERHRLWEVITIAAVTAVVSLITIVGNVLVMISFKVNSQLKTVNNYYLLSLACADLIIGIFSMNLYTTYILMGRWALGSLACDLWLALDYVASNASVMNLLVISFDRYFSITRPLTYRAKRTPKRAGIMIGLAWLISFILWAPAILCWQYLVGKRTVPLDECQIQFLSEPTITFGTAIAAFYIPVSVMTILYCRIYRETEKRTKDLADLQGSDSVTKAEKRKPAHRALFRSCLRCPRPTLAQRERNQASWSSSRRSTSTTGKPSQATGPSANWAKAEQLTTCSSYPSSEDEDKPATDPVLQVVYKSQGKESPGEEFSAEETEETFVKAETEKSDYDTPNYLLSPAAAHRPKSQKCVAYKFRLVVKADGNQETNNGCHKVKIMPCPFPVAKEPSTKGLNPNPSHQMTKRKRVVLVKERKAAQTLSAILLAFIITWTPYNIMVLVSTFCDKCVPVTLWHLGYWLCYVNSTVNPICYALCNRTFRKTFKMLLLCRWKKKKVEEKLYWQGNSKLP
endpoint: pKi
The scale used: pKi is minus the common logarithm of the concentration in molar units.

Give pKi only, for CCN(CC)CC1CCCCN1CC(=O)N1c2ccccc2C(=O)Nc2cccnc21 (stereo not shown) , using human m5 receptor (Hm5) (Homo sapiens) data.
5.55

###

Target sequence: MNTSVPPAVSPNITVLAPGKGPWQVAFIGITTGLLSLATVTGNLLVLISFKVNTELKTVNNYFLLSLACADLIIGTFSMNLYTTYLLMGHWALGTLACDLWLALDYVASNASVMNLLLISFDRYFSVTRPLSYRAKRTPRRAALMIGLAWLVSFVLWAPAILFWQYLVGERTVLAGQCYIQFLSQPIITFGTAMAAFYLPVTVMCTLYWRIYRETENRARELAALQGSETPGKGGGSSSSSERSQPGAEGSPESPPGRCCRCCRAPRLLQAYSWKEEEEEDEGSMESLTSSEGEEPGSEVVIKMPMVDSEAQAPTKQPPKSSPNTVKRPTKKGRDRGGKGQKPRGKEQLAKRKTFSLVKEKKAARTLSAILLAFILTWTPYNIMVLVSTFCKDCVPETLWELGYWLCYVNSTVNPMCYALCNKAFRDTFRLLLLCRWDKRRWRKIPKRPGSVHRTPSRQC
endpoint: pIC50
The scale used: pIC50 is minus the common logarithm of the concentration in molar units.

Provide pIC50 value for the following molecule: CCN(CC)CC1CCCCN1CC(=O)N1c2ccccc2C(=O)Nc2cccnc21 (stereo not shown) [AF-DX 116]
5.37
